Test system: Fer (mouse);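 note: 11-residue human phosphosite peptides and single-mutation variants displayed on the E. coli surface, counted by deep sequencing, each peptide's frequency after selection divided by its frequency in the unselected input library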;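 note: frequency after pTyr selection over input frequency; kinase dosed for 20-30% of maximal phosphorylation in three min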
test protocol: phosphorylation enrichment, bacterial display (enrichment ratio); higher = better substrate or ligand; peptides without Tyr show the background
The label depends only on phosphorylation enrichment: fulfilled if it is at least 0.4, not fulfilled if it is smaller.

biopolymer_sequence="PSALGYSPSLH [LLGL2_Y40_R45H]" class_assignment=fulfilled
biopolymer_sequence="LREKVYVSLEA [RXRA_Y397_A398V]" class_assignment=fulfilled
biopolymer_sequence="FLAVGDHKPHI [IDS_Y225_Y225D]" class_assignment="not fulfilled"
biopolymer_sequence="QNTGDDFDLFG [PTPN11_Y62_Y62D_YF]" class_assignment=fulfilled
biopolymer_sequence="VPLLEYFWDIF [CDAN1_Y712_R714W_YF]" class_assignment=fulfilled
biopolymer_sequence="PKEEPYQMQEK [SLC5A3_Y565]" class_assignment=fulfilled
biopolymer_sequence="KLVRLYAVVTR [LYN_Y306]" class_assignment=fulfilled
biopolymer_sequence="TAGEPYHDIRF [BAP1_Y223]" class_assignment=fulfilled
biopolymer_sequence="SSPQPYLVPFL [TAF4_Y652]" class_assignment=fulfilled
biopolymer_sequence="GKMSSYAFFVQ [HMGB1_Y16]" class_assignment=fulfilled
biopolymer_sequence="PKGIGYGQGAG [CSRP3_Y73]" class_assignment=fulfilled
biopolymer_sequence="FDGKDYIALKE [HLA-A_Y147_N151K_YF]" class_assignment="not fulfilled"
biopolymer_sequence="AGIKAYQSCLQ [ADGRA2_Y377_T375K]" class_assignment=fulfilled
biopolymer_sequence="LIEQAYDNPHE [PRPF8_Y871]" class_assignment=fulfilled
biopolymer_sequence="RSGNCYLDIRP [FBN1_Y1535]" class_assignment=fulfilled
biopolymer_sequence="DTFDPYLDIAL [USP36_Y268_V271I_YF]" class_assignment=fulfilled
biopolymer_sequence="TIQIMYGCDVG [HLA-A_Y123]" class_assignment=fulfilled
biopolymer_sequence="TDHLQYFDSNK [ARAP1_Y359_R358Q]" class_assignment=fulfilled
biopolymer_sequence="FYLGAYDRFLP [SLC22A5_Y486_V481F]" class_assignment=fulfilled
biopolymer_sequence="ANSSFHSTRSA [NUMA1_Y1836_Y1836H]" class_assignment=fulfilled
biopolymer_sequence="NKKYHYRELPV [ERN2_Y860_H858Y]" class_assignment="not fulfilled"
biopolymer_sequence="CDDGKYVFVVT [RPS6KA3_Y488_Y483C_YF]" class_assignment=fulfilled
biopolymer_sequence="YGSGNYNVFGN [HNRNPA2B1_Y300_D302V]" class_assignment=fulfilled
biopolymer_sequence="PKAWNYELPAT [PROM1_Y34]" class_assignment=fulfilled
biopolymer_sequence="GADDSYFTARS [ZAP70_Y492_YF]" class_assignment=fulfilled
biopolymer_sequence="LSSLAYSGKDA [FXN_Y205]" class_assignment=fulfilled
biopolymer_sequence="NHYKIYNPCAE [PTEN_Y68_L70P]" class_assignment="not fulfilled"
biopolymer_sequence="FKGKKYKPLDL [RPL35_Y78_YF]" class_assignment=fulfilled
biopolymer_sequence="RLPNGYGLAFR [DLK1_Y262_S260N_YF]" class_assignment=fulfilled
biopolymer_sequence="RAMRRYLERGE [ERBB3_Y680]" class_assignment=fulfilled
biopolymer_sequence="FTFDPYSEEDP [IL2RB_Y387_YF]" class_assignment=fulfilled
biopolymer_sequence="KVDKECEVRVR [GHR_Y226_Y226C]" class_assignment=fulfilled
biopolymer_sequence="KDHLDYKYQPR [SOX9_Y172_P170L]" class_assignment=fulfilled
biopolymer_sequence="FKNGDYSEVMK [LCT_Y1638_N1639S]" class_assignment="not fulfilled"
biopolymer_sequence="VLTSKYRGGGG [HBA1_Y141]" class_assignment="not fulfilled"
biopolymer_sequence="VTAALYGRLYE [BTD_Y536]" class_assignment=fulfilled
biopolymer_sequence="HKLSFNEFDFE [BTK_Y40_Y40N_YF]" class_assignment=fulfilled
biopolymer_sequence="LGEGSYGKVKE [STK11_Y60]" class_assignment=fulfilled
biopolymer_sequence="ITRDEYPSNPM [CEMIP2_Y1015]" class_assignment="not fulfilled"
biopolymer_sequence="RLSELYLRRNP [CFAP410_Y68_R73P]" class_assignment="not fulfilled"
biopolymer_sequence="AGQEDYDRLRP [CDC42_Y64]" class_assignment=fulfilled
biopolymer_sequence="IFETDYFRKGG [INSR_Y1189_YF]" class_assignment=fulfilled
biopolymer_sequence="GKSFIYAAFHA [KCNT1_Y563_T562I]" class_assignment=fulfilled
biopolymer_sequence="GEDPIYVTLEG [RTKtide_2018]" class_assignment=fulfilled
biopolymer_sequence="LLILEYAKYGS [RET_Y806_V804L]" class_assignment=fulfilled
biopolymer_sequence="AIIGIYNLRDD [CDH23_Y2949_I2950N]" class_assignment=fulfilled
biopolymer_sequence="GQKVAYGGTED [ALDH3A1_Y305_G309E]" class_assignment="not fulfilled"
biopolymer_sequence="GASRRYGSGVS [NEU1_Y242_W240R]" class_assignment=fulfilled
biopolymer_sequence="PGDGEYFTLQI [TP53_Y327_L323G]" class_assignment=fulfilled

Source of measurements: the supplement of paper PMC10065799
